target: Thyrotropin-releasing hormone receptor (Homo sapiens) (UniProt P34981); assay: qHTS for Small Molecule Agonists and Allosteric Enhancers of Human TRH Receptor: Validation Screen for Agonists (AID 493127); conditions: TRH receptor agonist cell assay; at 2 µM; hits give high values;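 further: intracellular calcium rise by fluo-8 fluorescence before TRH EC20 addition; 0% is about no effect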
Sequence (P34981 whole entry, looked up): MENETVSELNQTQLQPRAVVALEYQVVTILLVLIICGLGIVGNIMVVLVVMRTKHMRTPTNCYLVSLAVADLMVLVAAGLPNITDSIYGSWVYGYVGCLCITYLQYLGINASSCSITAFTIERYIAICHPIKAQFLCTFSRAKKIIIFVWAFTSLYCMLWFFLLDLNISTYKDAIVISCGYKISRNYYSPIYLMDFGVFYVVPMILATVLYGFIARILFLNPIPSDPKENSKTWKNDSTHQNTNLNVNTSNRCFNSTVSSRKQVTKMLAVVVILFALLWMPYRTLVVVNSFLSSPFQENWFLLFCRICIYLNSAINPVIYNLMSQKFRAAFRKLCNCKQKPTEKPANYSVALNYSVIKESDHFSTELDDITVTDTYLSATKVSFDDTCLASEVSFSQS
property: activation (%)

{"testSmiles": "C[Se]C[C@H](N)C(=O)O", "property": "activation", "observedResult": 0.188}
{"testSmiles": "COc1ccc2[nH]c3c(c2c1)CCNC3", "property": "activation", "observedResult": 1.56}
{"testSmiles": "O=C(O)c1cc[c]([Hg][Cl])cc1", "property": "activation", "observedResult": 1.5}

----------
tested on: CP286; test: qHTS profiling for inhibitors of Plasmodium falciparum proliferation (AID 504749); further: nearly all actives have a fitted effect of over 60% in size; conditions: P. falciparum in erythrocytes, SYBR Green DNA, 72 h; series mostly up to 28.7 µM
Inconclusive results are not listed. Activity calls are given as the source filed them. The call rests on the fitted dose curve; in most records, active means well fitted inhibition curve with a large enough effect; inconclusive means small, poorly fitted or top-dose-only effect; inactive means flat fitted curve, though single readings scatter.
Outcome codes: class 1 (active), class 0 (inactive)

{"compound": "O=C(NC(=O)c1c(F)cccc1F)Nc1ccc(Cl)c(Oc2ncc(C(F)(F)F)cc2Cl)c1", "systemName": "CP286", "labelClass": "class 0"}
{"compound": "O=[N+]([O-])c1ccc(F)c([N+](=O)[O-])c1", "systemName": "CP286", "labelClass": "class 0"}
{"compound": "O=C(CCl)c1ccc(Oc2ccc(C(=O)CCl)cc2)cc1", "systemName": "CP286", "labelClass": "class 0"}
{"compound": "ClC(Cl)(Cl)Cl", "systemName": "CP286", "labelClass": "class 0"}
{"compound": "O=[N+]([O-])c1ccccc1", "systemName": "CP286", "labelClass": "class 0"}
{"compound": "O=CC=O", "systemName": "CP286", "labelClass": "class 0"}
{"compound": "CCCC(=O)OC(C(Cl)(Cl)Cl)P(=O)(OC)OC (stereo not drawn)", "systemName": "CP286", "labelClass": "class 0"}
{"compound": "CN1C2CCC1CC(OC(c1ccccc1)c1ccc(Cl)cc1)C2 (stereo not drawn)", "systemName": "CP286", "labelClass": "class 1"}
{"compound": "C=CCN=C=S", "systemName": "CP286", "labelClass": "class 0"}
{"compound": "COc1ccc2c3c1O[C@H]1C(=O)CC[C@H]4[C@@H](C2)N(C)CC[C@]314", "systemName": "CP286", "labelClass": "class 0"}
{"compound": "COC1=CC=C2[C@H]3Cc4ccc(OC)c5c4[C@@]2(CCN3C)[C@H]1O5", "systemName": "CP286", "labelClass": "class 0"}
{"compound": "CNC(=O)OCC[N+](C)(C)C", "systemName": "CP286", "labelClass": "class 0"}
{"compound": "N#CN", "systemName": "CP286", "labelClass": "class 0"}
{"compound": "Clc1ccccc1Cl", "systemName": "CP286", "labelClass": "class 0"}
{"compound": "O=c1[nH]cc(N(CCCl)CCCl)c(=O)[nH]1", "systemName": "CP286", "labelClass": "class 0"}
{"compound": "CC(N)Cc1ccc(O)cc1 (stereo not drawn)", "systemName": "CP286", "labelClass": "class 0"}
{"compound": "C#CC(C)(O)CC (stereo not drawn)", "systemName": "CP286", "labelClass": "class 0"}
{"compound": "CC(=O)O[C@H]1CC[C@H]2[C@@H]3CCC4=CC(=O)CCC4=C3C=C[C@]12C", "systemName": "CP286", "labelClass": "class 0"}
